# procedure-text: Inhibition of Enterobacter cloacae P99 class C beta-lactamase by spectrophotometry
experimental-endpoint: Ki (µM)

O=C(CP(=O)(O)OCc1ccc(-c2ccccc2)cc1)c1ccc(-c2ccccc2)cc1: 74
O=C(CP(=O)(O)Oc1ccccc1)c1ccc(-c2ccccc2)cc1: 100

P: O=C(CP(=O)(O)OCc1ccccc1)c1ccc(-c2ccccc2)cc1
Q: O=C(CP(=O)(O)OCc1ccccc1)c1ccc2[nH]c(=O)oc2c1
R: O=P(O)(CC(O)c1ccccc1)OCc1ccccc1 (racemic)
S: O=C(CP(=O)(O)OCc1ccccc1)c1nc2ccccc2s1
Inquiry: Order by Ki, ascending. Please respond with the labels ordered as the question requires.
Reply text: S, Q, P, R
